Catalogue of plasma half-life (T1/2) readings, one per entry.
assay: Determination of inhibitor concentration in mouse plasma after intraperitoneal and oral dosing; assay type: in vivo; conditions: IP, 25 mg/kg, vehicle PEG400:H2O pH 2.3 30:70
The reply should be a number in h, with the unit left off.

# plasma half-life (T1/2) lookup, item O=C(Nc1cc(Nc2ccc3c(/C=C/c4ccccc4)n[nH]c3c2)ccc1F)c1ccccc1
19.9

Okay, and O=C(NCC1CC1)c1ccccc1Sc1ccc2c(/C=C/c3ccccn3)n[nH]c2c1 ?
0.9

====

Assay: Human liver microsome (HLM) assay
Type: in vitro ADME
Conditions: human liver microsomes, 5 μM test compound
Method: Human Liver Microsome (HLM) Assay Compound metabolism in human liver microsomes was measured by LC-MS analytical assay procedures as follows. […] (3 tubes per test compound-triplicate). […] The samples were then transferred to separate polypropylene microcentrifuge tubes and centrifuged at 14000 g for 10 min. (Fisher Micro […] M0017580). […]
measured property: % remain (HLM, 2 h) (%)
The reply should be a number in %, with the unit left off.

Completed entries (count: 4):
* CCn1nc(C)cc1C(=O)Nc1cc(C(=O)c2ccc3c(/C=C/c4ccccn4)n[nH]c3c2)ccc1C [Example 41(ee)] | 47
* Cc1cnc(C(=O)Nc2cccc(C(=O)c3ccc4c(/C=C/c5ccccc5)n[nH]c4c3)c2)s1 [Example 19(d)] | 36
* CCn1nc(C)cc1C(=O)Nc1cccc(Oc2ccc3c(/C=C/c4ccccn4)n[nH]c3c2)c1 [Example 31(d)] | 110
* O=C(NCc1cccc(F)c1)c1ccccc1Sc1ccc2c(/C=C/c3ccccn3)n[nH]c2c1 [Example 35(ff)] | 31

# % remain (HLM, 2 h) lookup, item Cc1cccc(C(=O)Nc2cccc(N(C)c3ccc4c(/C=C/c5ccc6c(c5)OCO6)n[nH]c4c3)c2)c1 [Example 16(b)]
50

====

Catalogue of concentration at 7 h readings, one per entry.
assay: Determination of inhibitor concentration in mouse plasma after intraperitoneal and oral dosing; format: in vivo; details: female, PO, 25 mg/kg, vehicle PEG400:H2O pH 2.3 30:70, read-out: Cmin (7 hr conc.)
The reply should be a number in ng/mL, with the unit left off.

Completed entries (count: 3):
• C=CCn1nc(C)cc1C(=O)Nc1cc(C(=O)c2ccc3c(/C=C/c4ccccn4)n[nH]c3c2)ccc1C [Example 41(ff)] = 410
• Cc1cc(C(=O)Nc2cc(Nc3ccc4c(/C=C/c5ccccn5)n[nH]c4c3)c(F)cc2C)n(C)n1 [Example 48(b)] = 136
• O=C(NOCC1CC1)c1ccccc1Sc1ccc2c(/C=C/c3ccccn3)n[nH]c2c1 [Example 35(s)] = 86

# concentration at 7 h lookup, item CCn1nc(C)cc1C(=O)Nc1cccc(Oc2ccc3c(/C=C/c4ccccn4)n[nH]c3c2)c1 [Example 31(d)]
3800

====

assay: Determination of inhibitor concentration in mouse plasma after intraperitoneal and oral dosing; type: in vivo; conditions: IP, 25 mg/kg, vehicle PEG400:H2O pH 2.3 30:70
Rule: plasma half-life (T1/2) of 2 h or more gives yes; anything lower gives no.

• O=C(Nc1nccs1)c1ccccc1Sc1ccc2c(/C=C/c3ccccn3)n[nH]c2c1 = no

Item Cc1ccc(CNC(=O)c2ccccc2Sc2ccc3c(/C=C/c4ccccn4)n[nH]c3c2)o1 with plasma half-life (T1/2) of 2 h or above?
no

Okay, and Cc1cc(C(=O)Nc2cccc(C(=O)c3ccc4c(/C=C/c5ccccn5)n[nH]c4c3)c2)on1 ?
yes
